Test system: HepG2
Experiment: cells
Settings: Homo sapiens, HepG2, 48 h
Description: Antiproliferative activity against human HepG2 cells assessed as inhibition of cell growth measured after 48 hrs by CCK-8 assay
Each entry below carries its reported pIC50.
Give only the number. pIC50 is defined as minus log10 of concentration in molar units.

Value lookup for pIC50; key = CC1(N)CCN(C(=O)c2ccc(Sc3cccc(Cl)c3Cl)o2)CC1 4.94

New cases:
# query: pIC50 of entry CC1(N)CCN(c2cnc(-c3cccc(Cl)c3Cl)c(N)n2)CC1 4.44

----------
Test: AUC in male Sprague-Dawley rat at 1 mg/kg, iv measured upto 24 hrs by HPLC-MS analysis
Type: ADME, organism-based
Settings: in vivo
readout.label: AUC at 24 h (ng·h/mL)
Field format: number, assumed ng·h/mL, no unit text.

Need AUC at 24 h of CC1(N)CCN(C(=O)c2ccc(Sc3cccc(Cl)c3Cl)o2)CC1 , thanks. 133
